# measurementTarget: VEGF165 (recombinant human vascular endothelial growth factor, 165 aa form) (Homo sapiens, UniProt P15692-4 P15692-4:27-191)
# Sequence (P15692 other isoform, or with tags, fused parts or gaps): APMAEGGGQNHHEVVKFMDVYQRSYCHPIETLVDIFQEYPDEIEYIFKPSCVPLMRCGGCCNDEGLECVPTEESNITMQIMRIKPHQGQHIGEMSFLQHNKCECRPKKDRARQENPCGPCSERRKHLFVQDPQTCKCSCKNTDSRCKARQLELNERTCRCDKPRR
# testDetails: filter; Kd1, X1 0.82, Kd2 10-100 nM
# condition: tags: gift from N. Ferrara, Genentech; chain copies: 2 (dimer, stated)
measureName: pKd
pKd here: minus log base 10 of the concentration, concentration in moles per litre.

For 34B (ssRNA, 2'-NH2 pyrimidines) RNA: GGGAGGACGAUGCGGUGUGGUCAAUGUGGGGUAGGGCUGGUAGGGCAUUCCGUACUGGUGUGGUCAGACGACUCGCCCGA , write its pKd.
10.17
